- systemUnderTest: T1, BSA-conjugated Aβ heptapeptide VFFAEDC (C-terminal Cys coupled to NSMP-activated BSA);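 further: ELISA binding of human antibody (10 or 2 µg/ml) to plate-coated BSA–peptide conjugates, detected with HRP anti-human Ig and TMB colour, mock-treated BSA as negative control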
- T1 construct: also called Peptide 18-23
- T1 peptide: VFFAEDC
- testDescription: ELISA
metric: OD ratio 18-23/BSA
Answers are plain numbers.

1) MS-R IgG1 7.9.H3 (antibody, V domains shown, full-length human IgG1; also called 7.9H3 IgG) VH: QVELVESGGGLVQPGGSLRLSCAASGFTFSSYAMSWVRQAPGKGLEWVSAINYQGNRKYYADSVKGRFTISRDNSKNTLYLQMNSLRAEDTAVYYCARGKGNTHKPYGYVRYFDVWGQGTLVTVSS VL: DIVLTQSPATLSLSPGERATLSCRASQSVSSSYLAWYQQKPGQAPRLLIYGASSRATGVPARFSGSGSGTDFTLTISSLEPEDFATYYCLQIYNMPITFGQGTKVEIK | 8

Could I get OD ratio 18-23/BSA for every one of these entries?
1. MS-R #7.12 IgG1 (antibody, V domains shown, full-length human IgG1) VH: QVELVESGGGLVQPGGSLRLSCAASGFTFSSYGMSWVRQAPGKGLEWVSNISGSGSSTYYADSVKGRFTISRDNSKNTLYLQMNSLRAEDTAVYYCARGKGNTHKPYGYVRYFDVWGQGTLVTVSS VL: DIVLTQSPATLSLSPGERATLSCRASQYVSSPYLAWYQQKPGQAPRLLISGSSNRATGVPARFSGSGSGTDFTLTISSLEPEDFAVYYCLQLYNIPNTFGQGTKVEIKR
2. MS-R IgG 8.2.H2 × 8.2.L1 (antibody, V domains shown, full-length human IgG) VH: QVELVESGGGLVQPGGSLRLSCAASGFTFSSYAMSWVRQAPGKGLEWVSAISRTGSKTYYADSVKGRFTISRDNSKNTLYLQMNSLRAEDTAVYYCARLLSRGYNGYYHKFDVWGQGTLVTVSS VL: DIVLTQSPATLSLSPGERATLSCRASQRVSGRYLAWYQQKPGQAPRLLIYGASSRATGVPARFSGSGSGTDFTLTISSLEPEDFATYYCQQLSSYPPTFGQGTKVEIKR
3. MS-R IgG 7.11H2 (antibody, V domains shown, full-length human IgG; also called 7.11H2 IgG) VH: QVELVESGGGLVQPGGSLRLSCAASGFTFSSYAMSWVRQAPGKGLEWVSAINANGYKKYYADSVKGRFTISRDNSKNTLYLQMNSLRAEDTAVYYCARGKGNTHKPYGYVRYFDVWGQGTLVTVSS VL: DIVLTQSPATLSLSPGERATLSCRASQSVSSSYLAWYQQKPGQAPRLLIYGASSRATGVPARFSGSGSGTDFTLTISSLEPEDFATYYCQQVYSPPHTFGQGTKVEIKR
4. MSR 7.9.H2 IgG1 (antibody, V domains shown, full-length human IgG1) VH: QVELVESGGGLVQPGGSLRLSCAASGFTFSSYAMSWVRQAPGKGLEWVSAINADGNRKYYADSVKGRFTISRDNSKNTLYLQMNSLRAEDTAVYYCARGKGNTHKPYGYVRYFDVWGQGTLVTVSS VL: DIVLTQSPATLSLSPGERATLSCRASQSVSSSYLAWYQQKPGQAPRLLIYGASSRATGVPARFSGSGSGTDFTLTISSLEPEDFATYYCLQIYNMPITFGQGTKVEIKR
5. MS-R #7.9.H7 IgG1 (antibody, V domains shown, full-length human IgG1; also called MAB 31; MS-Roche IgG #7.9.H7) VH: QVELVESGGGLVQPGGSLRLSCAASGFTFSSYAMSWVRQAPGKGLEWVSAINASGTRTYYADSVKGRFTISRDNSKNTLYLQMNSLRAEDTAVYYCARGKGNTHKPYGYVRYFDVWGQGTLVTVSS VL: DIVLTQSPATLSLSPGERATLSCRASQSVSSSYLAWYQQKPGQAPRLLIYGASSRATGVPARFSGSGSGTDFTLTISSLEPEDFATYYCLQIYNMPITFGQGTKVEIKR

RESULT:
1: 13; 2: 25; 3: 7; 4: 8; 5: 16
